Source listed as the supplement of paper PMC9801561.

Test system: Escherichia coli Nissle 1917
Assay: DuctApe activity index of respiration/growth curve (0 no growth to 9 maximum) (index 0-9); higher = more growth / nutrient utilisation, active = 3 or more; extreme values may be limits of the assay
Particulars: nutrient role: sole sulfur source (pyruvate carbon); incubation: 48 h, 37 °C
Measurement Label: DuctApe activity index
Note: the reply should be a number with no unit written.

# lookup: DuctApe activity index of `CC(=O)N[C@@H](CS)C(=O)O`
0.333

Which DuctApe activity index is reported for this compound? `CSCC[C@H](NC(=O)CN)C(=O)O`
7

What does the record list as DuctApe activity index for `NC(N)=S` ?
6.33

Dear colleague, I am looking for the recorded DuctApe activity index of the following compound: `N[C@@H](CS)C(=O)NCC(=O)O`
7

Which DuctApe activity index value belongs to `NCCS(=O)O` ?
8

Endpoint output: DuctApe activity index of `CSCC[C@H](N)C(=O)O` . Value?
7

Record request: DuctApe activity index value, item `N[C@@H](CSCSC[C@H](N)C(=O)O)C(=O)O`
8

Returns the measured DuctApe activity index for the input compound. Input: `N[C@H](CS)C(=O)O`
7.33

Need DuctApe activity index, item C[S+]([O-])CC[C@H](N)C(=O)O (stereo partly drawn) [L-Methionine Sulfoxide]
7

Quick one: DuctApe activity index of `N[C@@H](CS)C(=O)O` ?
7.33

Would you mind telling me what DuctApe activity index value was observed for `O=S1(=O)CCCC1` ?
0

Could you share which DuctApe activity index value was measured for O=S(O)(O)=S [Thiosulfate] ?
7

====

Tested on: Escherichia coli Nissle 1917
Assay: area under OmniLog respiration curve over 48 h (OmniLog units x h); higher = more growth / nutrient utilisation; extreme values may be limits of the assay
Particulars: nutrient role: C-Source, alcohol; incubation: 48 h, 37 °C
# if value of area under OmniLog respiration curve reaches 100, tag T; if it stays below, tag F

# bool: area under OmniLog respiration curve of NCCO [2-Aminoethanol] >= 100
T

Determine whether this compound has area under OmniLog respiration curve no lower than 100: CC(=O)C(C)=O [2,3-Butanedione]
F

Confirm if area under OmniLog respiration curve reported for the compound O=C(CO)CO [Dihydroxyacetone] is 100 or above.
T

Decide: area under OmniLog respiration curve of CC(O)C(C)O (stereo not given) [2,3-Butanediol] >= 100?
F

Given the entry CC(O)CO (stereo not given) [1,2-Propanediol] , answer whether its area under OmniLog respiration curve meets or surpasses 100.
T

====

System: Escherichia coli Nissle 1917
Assay: area under OmniLog respiration curve over 48 h (OmniLog units x h); higher = more growth / nutrient utilisation; extreme values may be limits of the assay
Particulars: nutrient role: C-Source, amino acid; incubation: 48 h, 37 °C
Use 7000 as the dividing line for area under OmniLog respiration curve, with the line itself on the TRUE side and lower values as FALSE.

In plain terms: is recorded area under OmniLog respiration curve at least 7000 for C[C@H](N)C(=O)O [L-Alanine] ?
TRUE

Has `NCC(=O)N[C@@H](CC(=O)O)C(=O)O` a recorded area under OmniLog respiration curve greater than or equal to 7000?
TRUE

Decide: is the reported value of area under OmniLog respiration curve for N[C@@H](Cc1c[nH]cn1)C(=O)O [L-Histidine] equal to or greater than 7000?
FALSE

Tell me whether area under OmniLog respiration curve is at least 7000 here: NC(=O)C[C@H](N)C(=O)O [L-Asparagine]
TRUE

Quick check, area under OmniLog respiration curve >= 7000? C[C@@H](N)C(=O)O [D-Alanine]
TRUE

Test whether the molecule N[C@@H](CCO)C(=O)O [L-Homoserine] records area under OmniLog respiration curve of 7000 or higher.
FALSE

Is reported area under OmniLog respiration curve greater than or equal to 7000 here: NCCC[C@H](N)C(=O)O [L-Ornithine]
FALSE

Would you say `NCC(=O)N[C@@H](CCC(=O)O)C(=O)O` shows area under OmniLog respiration curve at minimum 7000?
TRUE

Check if area under OmniLog respiration curve >= 7000 (inclusive). Item: N[C@@H](CO)C(=O)O [L-Serine]
TRUE

Does area under OmniLog respiration curve meet or surpass 7000 for O=C(O)[C@@H]1CCCN1 [L-Proline] ?
TRUE

Dear colleague, could you confirm whether O=C(O)[C@@H]1C[C@@H](O)CN1 [Hydroxy-L-Proline] has area under OmniLog respiration curve at or above 7000?
FALSE

Threshold query (area under OmniLog respiration curve >= 7000) on NC(=O)CC[C@H](N)C(=O)O [L-Glutamine]
TRUE

Quick check, area under OmniLog respiration curve >= 7000? NCCCC[C@H](N)C(=O)O [L-Lysine]
FALSE

Threshold query (area under OmniLog respiration curve >= 7000) on O=C1CC[C@@H](C(=O)O)N1 [L-Pyroglutamic acid]
FALSE

Assess whether reported area under OmniLog respiration curve for `NCC(=O)N1CCC[C@H]1C(=O)O` sits at 7000 or higher.
TRUE

Is area under OmniLog respiration curve at least 7000? Consider N[C@@H](CCC(=O)O)C(=O)O [L-Glutamic acid]
TRUE

Reported area under OmniLog respiration curve at or above 7000? N=C(N)NCCC[C@H](N)C(=O)O [L-Arginine]
FALSE

Does area under OmniLog respiration curve meet or surpass 7000 for N[C@H](CC(=O)O)C(=O)O [D-Aspartic acid] ?
FALSE

Answer whether area under OmniLog respiration curve of CC(=O)N[C@@H](CCC(=O)O)C(=O)O [N-Acetyl-L-Glutamic acid] is greater than or equal to 7000.
FALSE
